Molecular target: 5-lipoxygenase (Rattus norvegicus)
Construct: endogenous in cells; host or cells: RBL-1 (rat basophilic leukemia) cells
Sequence (P12527 1-673): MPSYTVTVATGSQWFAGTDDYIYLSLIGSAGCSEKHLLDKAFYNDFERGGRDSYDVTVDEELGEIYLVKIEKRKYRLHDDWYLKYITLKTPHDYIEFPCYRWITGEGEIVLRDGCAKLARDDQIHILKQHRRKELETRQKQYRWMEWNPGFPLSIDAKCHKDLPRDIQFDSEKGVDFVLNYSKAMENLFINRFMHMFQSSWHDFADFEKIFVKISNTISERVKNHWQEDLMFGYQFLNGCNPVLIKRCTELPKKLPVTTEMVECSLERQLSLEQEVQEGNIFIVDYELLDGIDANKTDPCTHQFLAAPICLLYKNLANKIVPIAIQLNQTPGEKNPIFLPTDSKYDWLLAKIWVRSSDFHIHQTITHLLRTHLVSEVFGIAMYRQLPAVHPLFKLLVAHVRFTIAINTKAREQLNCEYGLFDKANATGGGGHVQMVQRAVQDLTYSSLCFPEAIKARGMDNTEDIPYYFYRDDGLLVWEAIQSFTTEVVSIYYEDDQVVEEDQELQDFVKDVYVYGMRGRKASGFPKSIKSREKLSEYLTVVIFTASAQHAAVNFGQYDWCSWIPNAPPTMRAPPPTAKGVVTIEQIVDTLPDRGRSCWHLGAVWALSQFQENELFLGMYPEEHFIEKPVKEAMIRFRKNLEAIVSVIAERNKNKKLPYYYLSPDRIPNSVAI
Assay: Effect of Inhibiting 5-Lipoxygenase (inhibition of 5-HETE production in RBL-1 cells, HPLC)
Format: cell-based
Conditions: 10^-7 M, arachidonic acid + A-23187, 37° C., 20 min, read-out: % Inhibition (IE) of 5-HETE production
OBSERVED PROPERTY: inhibition at 0.1 µM
Enter the number, and then the unit.

Write down the reported inhibition at 0.1 µM (system: 5-lipoxygenase (Rattus norvegicus)) of Cc1c(C)c2c(c(C)c1O)CC(CSc1ccccn1)O2 (stereo not drawn)
45%

Write down the reported inhibition at 0.1 µM (system: 5-lipoxygenase (Rattus norvegicus)) of Cc1c(C)c2c(c(C)c1O)CC(CSCCC(=O)O)O2 (stereo not drawn)
64%

Write down the reported inhibition at 0.1 µM (system: 5-lipoxygenase (Rattus norvegicus)) of Cc1c(C)c2c(c(C)c1O)CC(C)(CSc1ccccc1)O2 (stereo not drawn)
87%

====

Would you mind telling me the reported inhibition at 0.1 µM of each entry?
Biological target: 5-lipoxygenase (Rattus norvegicus)
Construct: endogenous in cells; host or cells: RBL-1 (rat basophilic leukemia) cells
Assay: Effect of Inhibiting 5-Lipoxygenase (inhibition of 5-HETE production in RBL-1 cells, HPLC)
Assay type: cell-based
Details: 10^-7 M, arachidonic acid + A-23187, 37° C., 20 min, read-out: % Inhibition (IE) of 5-HETE production
# number only, unit % dropped from output

Complete the entry with inhibition at 0.1 µM for Cc1c(C)c2c(c(C)c1O)CC(CSc1ccc(F)cc1)O2 (stereo not drawn) [Compound 9]
96

Complete the entry with inhibition at 0.1 µM for Cc1c(C)c2c(c(C)c1O)CC(CS(=O)(=O)c1ccccc1)O2 (stereo not drawn) [Compound 15]
19

Complete the entry with inhibition at 0.1 µM for Cc1c(C)c2c(c(C)c1O)CC(C[S+]([O-])c1ccccc1)O2 (stereo not drawn) [Compound 13]
8

Complete the entry with inhibition at 0.1 µM for Cc1c(C)c2c(c(C)c1O)CC(C)(CNCCc1ccccc1)O2 (stereo not drawn) [Compound 25]
94

Complete the entry with inhibition at 0.1 µM for Cc1c(C)c2c(c(C)c1O)CC(CSc1ccccc1)O2 (stereo not drawn) [Compound 3]
100

Complete the entry with inhibition at 0.1 µM for Cc1c(C)c2c(c(C)c1O)CC(C)(CSc1ccc(F)cc1)O2 (stereo not drawn) [Compound 21]
98

Complete the entry with inhibition at 0.1 µM for CCCCCCCCSCC1Cc2c(C)c(O)c(C)c(C)c2O1 (stereo not drawn) [Compound 5]
48

Complete the entry with inhibition at 0.1 µM for Cc1c(C)c2c(c(C)c1O)CC(CSc1ccc3ccccc3c1)O2 (stereo not drawn) [Compound 11]
19

Complete the entry with inhibition at 0.1 µM for Cc1c(C)c2c(c(C)c1O)CC(CSCc1ccccc1)O2 (stereo not drawn) [Compound 17]
88

====

Target: 5-lipoxygenase (Rattus norvegicus, UniProt P12527)
Construct: endogenous in cells; host or cells: RBL-1 (rat basophilic leukemia) cells
Sequence (P12527 1-673): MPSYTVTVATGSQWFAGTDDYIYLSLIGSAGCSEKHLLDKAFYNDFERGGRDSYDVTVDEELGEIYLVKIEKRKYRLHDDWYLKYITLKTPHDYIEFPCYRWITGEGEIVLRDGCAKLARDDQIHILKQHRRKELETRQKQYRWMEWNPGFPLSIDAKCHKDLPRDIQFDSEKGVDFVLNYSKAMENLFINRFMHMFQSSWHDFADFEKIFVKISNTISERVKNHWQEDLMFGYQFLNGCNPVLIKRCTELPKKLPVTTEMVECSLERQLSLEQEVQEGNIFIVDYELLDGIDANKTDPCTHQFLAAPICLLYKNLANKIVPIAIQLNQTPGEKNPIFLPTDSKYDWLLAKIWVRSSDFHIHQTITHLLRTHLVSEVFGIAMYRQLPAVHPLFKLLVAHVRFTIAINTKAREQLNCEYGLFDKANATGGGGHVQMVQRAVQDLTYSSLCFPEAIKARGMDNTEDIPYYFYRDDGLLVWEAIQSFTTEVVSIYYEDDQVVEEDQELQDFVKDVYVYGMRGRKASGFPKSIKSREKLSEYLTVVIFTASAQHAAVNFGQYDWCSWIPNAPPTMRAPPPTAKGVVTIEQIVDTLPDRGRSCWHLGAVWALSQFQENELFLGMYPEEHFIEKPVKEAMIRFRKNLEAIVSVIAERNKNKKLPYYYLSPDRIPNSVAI
Assay: Effect of Inhibiting 5-Lipoxygenase (inhibition of 5-HETE production in RBL-1 cells, HPLC)
Assay type: cell-based
Details: 10^-6 M, arachidonic acid + A-23187, 37° C., 20 min, read-out: % Inhibition (IE) of 5-HETE production
OBSERVED PROPERTY: inhibition at 1 µM (%)
# number only, unit % dropped from output

Write down the reported inhibition at 1 µM (system: 5-lipoxygenase (Rattus norvegicus, UniProt P12527)) of Cc1c(C)c2c(c(C)c1O)CC(CSc1ccc3ccccc3c1)O2 (stereo not drawn)
100

Write down the reported inhibition at 1 µM (system: 5-lipoxygenase (Rattus norvegicus, UniProt P12527)) of Cc1c(C)c2c(c(C)c1O)CC(CSc1ccccc1)O2 (stereo not drawn)
100

Write down the reported inhibition at 1 µM (system: 5-lipoxygenase (Rattus norvegicus, UniProt P12527)) of Cc1c(C)c2c(c(C)c1O)CC(C)(CSc1ccc(F)cc1)O2 (stereo not drawn)
100

Write down the reported inhibition at 1 µM (system: 5-lipoxygenase (Rattus norvegicus, UniProt P12527)) of Cc1c(C)c2c(c(C)c1O)CC(CS(=O)(=O)c1ccccc1)O2 (stereo not drawn)
100

Write down the reported inhibition at 1 µM (system: 5-lipoxygenase (Rattus norvegicus, UniProt P12527)) of Cc1c(C)c2c(c(C)c1O)CC(C)(CSc1ccccc1)O2 (stereo not drawn)
99

Write down the reported inhibition at 1 µM (system: 5-lipoxygenase (Rattus norvegicus, UniProt P12527)) of Cc1c(C)c2c(c(C)c1O)CC(CSCCC(=O)O)O2 (stereo not drawn)
100

Write down the reported inhibition at 1 µM (system: 5-lipoxygenase (Rattus norvegicus, UniProt P12527)) of Cc1c(C)c2c(c(C)c1O)CC(C[S+]([O-])c1ccccc1)O2 (stereo not drawn)
100

Write down the reported inhibition at 1 µM (system: 5-lipoxygenase (Rattus norvegicus, UniProt P12527)) of CCCCCCCCSCC1Cc2c(C)c(O)c(C)c(C)c2O1 (stereo not drawn)
100

Write down the reported inhibition at 1 µM (system: 5-lipoxygenase (Rattus norvegicus, UniProt P12527)) of Cc1c(C)c2c(c(C)c1O)CC(CSc1ccc(F)cc1)O2 (stereo not drawn)
100

Write down the reported inhibition at 1 µM (system: 5-lipoxygenase (Rattus norvegicus, UniProt P12527)) of Cc1c(C)c2c(c(C)c1O)CC(C)(CNCCc1ccccc1)O2 (stereo not drawn)
99

Write down the reported inhibition at 1 µM (system: 5-lipoxygenase (Rattus norvegicus, UniProt P12527)) of Cc1c(C)c2c(c(C)c1O)CC(CSCc1ccccc1)O2 (stereo not drawn)
100

Write down the reported inhibition at 1 µM (system: 5-lipoxygenase (Rattus norvegicus, UniProt P12527)) of Cc1c(C)c2c(c(C)c1O)CC(CSc1ccccn1)O2 (stereo not drawn)
100
